molecular target: L-lactate dehydrogenase (Plasmodium falciparum (isolate CDC / Honduras)); assay: PfLDH activity inhibition – cell lysate, 3D7 strain, counter-screen for P. falciparum growth inhibition project (AID 2304);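 also: 0% = vehicle and 100% = reference inhibitor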; conditions: P. falciparum 3D7 crude extract, LDH APAD/NBT absorbance; at 2 µM; stronger effect = higher value
Listing of entries alongside the reported inhibition.
READOUT_KIND: inhibition (%)

> print(dat)
                           structure.string                                       tgt  observed.result
1  O=C(NCCc1ccc(Cl)c(Cl)c1)c1ccc(CNC(=O)c2ccc(O)c(-c3ccc(Cl)c(Cl)c3)c2)cc1  L-lactate dehydrogenase (Plasmodium falciparum (isolate CDC / Honduras))               -6
2  O=C1C(c2ccccc2)=C(Nc2ccc(Cl)cc2)c2ccccc21  L-lactate dehydrogenase (Plasmodium falciparum (isolate CDC / Honduras))               -2
3  CC(=O)Nc1ccc(OCCN(Cc2ccccc2C(F)(F)F)c2ccc(C#N)c(C(F)(F)F)c2)cc1  L-lactate dehydrogenase (Plasmodium falciparum (isolate CDC / Honduras))                0
4  CC(C)(C)NC(=O)COC(=O)c1c2c(nc3ccccc13)C(=Cc1ccc3c(c1)OCO3)CCC2  L-lactate dehydrogenase (Plasmodium falciparum (isolate CDC / Honduras))               -4
5  Oc1ccc(CCNc2nc(NCCCOc3ccccc3-c3ccc(F)cc3)nc(N3CCNCC3)n2)cc1  L-lactate dehydrogenase (Plasmodium falciparum (isolate CDC / Honduras))               -1
